Sourced from patent US10308652B2

tested.on: TNFα (Homo sapiens (Human), UniProt P01375)
Sequence (P01375 77-233): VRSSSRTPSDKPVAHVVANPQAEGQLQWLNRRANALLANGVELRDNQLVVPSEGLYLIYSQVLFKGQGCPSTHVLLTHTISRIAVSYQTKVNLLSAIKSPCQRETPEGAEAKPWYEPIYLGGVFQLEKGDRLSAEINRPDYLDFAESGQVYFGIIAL
assay.summary: TNF induced HEK-Blue assay
test.parameters: TNFα 0.5 ng/ml; HEK-Blue-CD40L cells, NF-κB-driven secreted alkaline phosphatase reporter; 18 h
pIC50: −log10 of the molar value.
value.type: pIC50

- COc1ccc(-c2ccc3nc4c(n3n2)C(c2ccccc2OC(F)F)NCC4)cn1 (racemic): > 6.00
- CC(C)(O)c1ccc(-c2ccc3nc4c(n3n2)[C@H](c2cc(Cl)ccc2C(F)(F)F)NC[C@H]4O)cc1 (racemic): 5.00 to 6.00

// query Find the measured pIC50 of CC(C)(O)c1ccc(-c2ccc3nc4c(n3n2)[C@H](c2ccccc2OC(F)F)NC[C@@H]4O)cc1 [Example 7] and report it.
// result 5.00 to 6.00

// query Look up pIC50 of CC(C)(O)c1ccc(-c2ccc3nc4c(n3n2)[C@@H](c2ccc(F)cc2C(F)(F)F)NC[C@H]4O)cc1 (racemic) and report it.
// result > 6.00
